Sourced from patent US20260034121A1

subject of test: aSyn fibril growth (in vitro aSyn fibrils) (Homo sapiens, UniProt P37840)
Construct: made in house; host or cells: E. coli BL21-CodonPlus (DE3)-RIL, pRK172 plasmid
assay protocol: FlAsH fluorescence fibril growth assay with in vitro assembled aSyn fibril seeds
Format: biochemical
measurement context: read-out: IC50 [95% Cl] [μM] [mean ± std]; 1 μM fibril seeds, 3 μM C2-aSyn monomer, 3-hour incubation
measurement label: IC50 (µM)
Please state the figure in µM; there is no need to write the unit.

## Task What value of IC50 has been reported for the following compound? CCOC(=O)C1CCN(Cc2cc(OC)c(O)c(OC)c2)CC1
## Result 18
